Source: patent US20220144922A1

- target_of_assay: T1, postfusion RSV F ectodomain, subtype B (respiratory syncytial virus subtype B)
- T1 construct: extracellular domain; also called Postfusion subtype B
- method: BLI, IgG on sensor
measured_endpoint: pKd
In plain terms, pKd is the concentration in mol/L turned into minus its base-10 logarithm.

Using the record for ADI-15576 (antibody, V domains shown, IgG; also called Antibody Number 146) VH: QVQLVQSGAAVKKPGESLKISCKGFGYSFTKYWIGWVRQVPGKGLEWIGIISPTDSNTRYSPSFRGQVTMSADKSISAAYLQWSSLKASDTAMYYCARHSSPYSSGWYGDTYFFDSWGQGTLVTVSS VL: QPVLTQPPSASGTPGQRVTISCSGSNSNIGTNTVNWYQQLPGTAPKVLIHNNNERPSGVPDRFSGSKSGTSASLAISGLQSEDEADYYCAAWDDSLRGYVFGTGTKVTVL , state its measured pKd.
9.75

Identify measured pKd associated with ADI-15627 (antibody, V domains shown, IgG; also called Antibody Number 192) VH: EVQLVESGGGVVQPGRSLRLSCAASGFTFSDYAMHWVRQAPGKGLEWVAVIWYDGGNKYYADSAKGRFTISRDNSKNTLYLQMNSLRAEDTAVYYCAKDRGSIWNVGDGMDVWGQGTTVTVSS VL: QPVLTQPPSVSVAPGQTARVTCGGNNIGAKSVHWYQQKPGQAPVLVVDDDTDRPSGIPERFSGSNSGNTATLTISRVEAGDEADYYCQVWDASIGPLYVFGTGTKLTVL
9.86

Tell me pKd reported for ADI-15605 (antibody, V domains shown, IgG) VH: QVQLVQSGPEVKKPGESLKISCKGSGYTFTTYWIGWVRQRPGKGLEWMGIIHPGDSDTRYSPSLQGQVTISVDKSINTAYLQWRSLKASDTGMYYCARFEYGDFGNDFWGQGTLVTVSS VL: NFMLTQPHSVSESPGKTVTISCSRSSGSIANNYVQWYQQRPGSSPTTVIYEDNQRPSGVPDRFSGSIDSSSNSASLTISGLKTEDEADYYCQSYDSSNHRVFGGGTKLTVL
9.77
